Test system: U2OS
assayRemarks: cell viability relative to DMSO; higher = less toxic
conditionDetails: 72 h; 1000 nM
Listed here: items and their measured cell viability.
Value expressed in %; do not type the unit.

Reference set (5 entries):
compound: CC1CCN(C(c2ccc(F)cc2)c2ccc(C(C)C(=O)O)cc2-c2ccc(C(F)(F)F)cc2)CC1 (stereo not drawn) [TC-E-5006]
cell viability / %: 96.5

compound: O=C(O)c1ccc2c(c1)C(=O)N(c1cccc(Oc3ccc([N+](=O)[O-])cc3)c1)C2=O
cell viability / %: 99

compound: N[C@H]1C[C@@H]1c1ccccc1 (racemic) [tranylcypromine]
cell viability / %: 103

compound: C1CCN2C[C@@H]3C[C@@H](CN4CCCC[C@@H]34)[C@H]2C1 [sparteine-sulfate]
cell viability / %: 97.6

compound: O=[N+]([O-])c1cc([N+](=O)[O-])c(/C=C/c2ccc(Cl)c(Cl)c2)cc1/C=C/c1ccc(Cl)c(Cl)c1
cell viability / %: 110

Request: Which measured cell viability belongs to Cc1noc2c1-c1ccccc1C(c1ccc(Cl)cc1)=N[C@H]2CC(N)=O [CPI-0610] , tested on U2OS?
Response: 84.1

Request: And then COc1ccc2c(c1OC)C(=O)O[C@@H]2[C@H]1c2c(cc3c(c2OC)OCO3)CCN1C [noscapine] , what is it?
Response: 97.5

Request: One more compound: CCn1cc(C(=O)O)c(=O)c2cc(F)c(N3CCNC(C)C3)c(F)c21 (stereo not drawn) [lomefloxacin]
Response: 104

---

Test system: Vero E6
assayRemarks: cell viability relative to DMSO; higher = less toxic
conditionDetails: 72 h; 10 nM
// cell viability lookup, one value per entry
Write down the numeric answer in % and omit the unit.

Check out these entries, answers already filled in.
compound: Cc1ccc(NC(=O)CCCCCC(=O)Nc2ccccc2N)cc1
testReadout: cell viability
unit: %
reportedResult: 102
//
compound: CCCCNNC(=O)c1ccc(Br)cc1
testReadout: cell viability
unit: %
reportedResult: 98.9
//
compound: Cc1cc(C)c(NC(=O)C2CC3CCC2C3)c(C)c1 (stereo not given)
testReadout: cell viability
unit: %
reportedResult: 98.4
//
compound: O=c1cc(-c2ccccc2)oc2cc(O)cc(O)c12
testReadout: cell viability
unit: %
reportedResult: 102
//
compound: CC(C)(C)S(=O)(=O)N[C@H]1CC[C@H](C(=O)Nc2ccc(C(F)(F)F)cn2)CC1
testReadout: cell viability
unit: %
reportedResult: 104

Request: # query: cell viability of entry O=C(Nc1cccc(C(F)(F)F)c1)Nc1cc(S(=O)(=O)NC2CC2)ccc1-c1ccsc1
Response: 97.4

Request: Query CC1CCN(C(c2ccc(F)cc2)c2ccc(C(C)C(=O)O)cc2-c2ccc(C(F)(F)F)cc2)CC1 (stereo not given) next
Response: 104

Request: Another: C1CCN2C[C@@H]3C[C@@H](CN4CCCC[C@@H]34)[C@H]2C1 [sparteine-sulfate]
Response: 98.7

---

System: Vero E6
assayRemarks: cell viability relative to DMSO; higher = less toxic
conditionDetails: 72 h; 1000 nM
testReadout: cell viability (%)
Your answer is read as %, so omit the unit and give the number.

Worked examples follow.
molecule: c1ccc(CC2=NCCN2)cc1
unit: %
cell viability: 106
//
molecule: CCC(CC)O[C@@H]1C=C(C(=O)O)C[C@H](N)[C@H]1NC(C)=O [oseltamivir-carboxylate]
unit: %
cell viability: 95.9
//
molecule: CC(C)(C)NCc1cc(Nc2ccnc3cc(Cl)ccc23)c2c(c1O)CCCC2 [naphthoquine-phosphate]
unit: %
cell viability: 99.3
//
molecule: O=C(O)CCC(=O)O
unit: %
cell viability: 98.4
//
molecule: O=c1cc(-c2ccccc2)oc2cc(O)cc(O)c12
unit: %
cell viability: 94.8

Request: Param readout= cell viability; system= Vero E6; entry= C[C@@H]1CN(Cc2ccc(F)cc2)CCN1C(=O)COc1ccc(Cl)cc1NC(N)=O ; returns value.
Response: 104

Request: Also O=C1S/C(=C\c2ccc(OCc3cccc(B(O)O)c3)cc2)C(=O)N1Cc1ccc(F)cc1 , if possible.
Response: 91.9

Request: Follow-up item: CC[C@H](C)[C@H](N)C1=N[C@H](C(=O)N[C@@H](CC(C)C)C(=O)N[C@H](CCC(=O)[O-])C(=O)N[C@H](C(=O)N[C@H]2CCCCNC(=O)[C@H](CC(N)=O)NC(=O)[C@@H](CC(=O)[O-])NC(=O)[C@H](Cc3cnc[nH]3)NC(=O)[C@@H](Cc3ccccc3)NC(=O)[C@H]([C@@H](C)CC)NC(=O)[C@@H](CCCN)NC2=O)[C@@H](C)CC)CS1.[Zn+2]
Response: 95.5
